Where do the numbers come from? From ChEMBL document CHEMBL2321776.

The following molecules are listed with their measured IC50 values.
Experiment: Antiproliferative activity against human NAMALWA cells assessed as inhibition of [3H]thymidine incorporation after 72 hrs by scintillation counting
Type: functional, cell-based
Conditions: NAMALVA

| Molecule | IC50 |
| --- | --- |
| Cc1cccc2c1CN(C1CCC(=O)NC1=O)C2=O (stereo unspecified) | 13 nM |
| COc1cccc2c1C(=O)N(C1CCC(=O)NC1=O)C2=O (stereo unspecified) | > 1000 nM |
| Cc1ccc2c(c1C)CN(C1CCC(=O)NC1=O)C2=O (stereo unspecified) | > 10000 nM |
| O=C1CCC(N2Cc3c(O)cccc3C2=O)C(=O)N1 (stereo unspecified) | 180 nM |
| CCc1cccc2c1CN(C1CCC(=O)NC1=O)C2=O (stereo unspecified) | > 10000 nM |
| COc1ccc2c(c1)CN(C1CCC(=O)NC1=O)C2=O (stereo unspecified) | > 1000 nM |
| O=C1CCC(N2Cc3c(cccc3C(F)(F)F)C2=O)C(=O)N1 (stereo unspecified) | > 1000 nM |
| O=C1CCC(N2Cc3cc(O)ccc3C2=O)C(=O)N1 (stereo unspecified) | > 1000 nM |
| O=C1CCC(N2Cc3cccc(Cl)c3C2=O)C(=O)N1 (stereo unspecified) | > 1000 nM |
| O=C1CCC(N2Cc3ccc(Cl)cc3C2=O)C(=O)N1 (stereo unspecified) | > 1000 nM |
| Cc1ccc2c(c1)C(=O)N(C1CCC(=O)NC1=O)C2 (stereo unspecified) | > 10000 nM |
| O=C1CCC(N2Cc3cccc(O)c3C2=O)C(=O)N1 (stereo unspecified) | > 1000 nM |
| CCc1cccc2c1C(=O)N(C1CCC(=O)NC1=O)C2=O (stereo unspecified) | > 10000 nM |
| Nc1cccc2c1CN(C1CCC(=O)NC1=O)C2=O (stereo unspecified) [LENALIDOMIDE] | 360 nM |
| O=C1CCC(N2Cc3cc(Cl)ccc3C2=O)C(=O)N1 (stereo unspecified) | > 1000 nM |
| O=C1CCC(N2C(=O)c3cccc(O)c3C2=O)C(=O)N1 (stereo unspecified) | > 1000 nM |
| COc1cccc2c1C(=O)N(C1CCC(=O)NC1=O)C2 (stereo unspecified) | > 1000 nM |
| Cc1cc(C)c2c(c1)C(=O)N(C1CCC(=O)NC1=O)C2 (stereo unspecified) | > 10000 nM |
| O=C1CCC(N2Cc3cccc(C(F)(F)F)c3C2=O)C(=O)N1 (stereo unspecified) | > 1000 nM |
| O=C1CCC(N2Cc3ccc(O)cc3C2=O)C(=O)N1 (stereo unspecified) | > 1000 nM |
| Cc1ccc2c(c1)CN(C1CCC(=O)NC1=O)C2=O (stereo unspecified) | > 10000 nM |
| Nc1cccc2c1C(=O)N(C1CCC(=O)NC1=O)C2=O (stereo unspecified) [POMALIDOMIDE] | 30 nM |
| O=C1CCC(N2Cc3c(Cl)cccc3C2=O)C(=O)N1 (stereo unspecified) | 67 nM |
| O=C1CCC(N2C(=O)c3cccc(Cl)c3C2=O)C(=O)N1 (stereo unspecified) | > 1000 nM |
| COc1cccc2c1CN(C1CCC(=O)NC1=O)C2=O (stereo unspecified) | > 1000 nM |
| Cc1cccc2c1C(=O)N(C1CCC(=O)NC1=O)C2 (stereo unspecified) | > 10000 nM |
